test target: T1, human ALPPL2 (recombinant protein) (human, UniProt P10696 20-503, limits assumed)
T1 construct: biotinylated where captured on streptavidin
T1 sequence (P10696 20-503 limits assumed): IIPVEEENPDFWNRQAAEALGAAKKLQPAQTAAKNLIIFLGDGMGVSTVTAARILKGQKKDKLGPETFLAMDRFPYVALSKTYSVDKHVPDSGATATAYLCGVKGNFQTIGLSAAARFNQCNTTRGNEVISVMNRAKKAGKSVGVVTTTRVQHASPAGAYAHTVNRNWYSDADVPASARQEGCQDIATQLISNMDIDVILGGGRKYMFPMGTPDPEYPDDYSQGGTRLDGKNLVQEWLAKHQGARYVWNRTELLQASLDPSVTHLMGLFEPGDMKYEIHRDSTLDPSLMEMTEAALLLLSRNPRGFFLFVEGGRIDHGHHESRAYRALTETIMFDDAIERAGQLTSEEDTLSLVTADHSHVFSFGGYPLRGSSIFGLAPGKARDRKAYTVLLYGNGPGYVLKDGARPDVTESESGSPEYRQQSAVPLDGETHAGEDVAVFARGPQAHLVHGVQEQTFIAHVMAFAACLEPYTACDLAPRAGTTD
procedure text: screen of rabbit B-cell clones by ELISA and FACS

binder	binding result
AB1C36 (antibody, V domains shown, Rabbit antibody cloned from a single B cell) VH: QSLEESGGDLVKPGASLTLTCTASGFSFSSGYNICWVRQAPGKGLELIACIYTSSSGSTYYASWAKGRFTISKTSSTTVTLQMTSLTVADTATYFCARGEAYYAYGYVGYAYYHGAFDPWGPGTLVTVSS VL: DIVMTQTPASVEAGVGGTVTIKCQASHSISKYFSWYQQKIGQPPKLLIYEASTLASGVPSRFKGSGSGTQFTLTISDLECADAATYYCQSYYYGTSSSYAFGGGTEVVVK	binds
AB1C10 (antibody, V domains shown, Rabbit antibody cloned from a single B cell) VH: QSLEESGGDLVKPGASLTLTCTASGFDFSSNGMCWVRQAPGKGLEWIACIYVDSSDNTNYASWVNGRFTISRTSSTTVTLQMTSLTAADTATYFCARGYGYVGSAMDLWGQGTLVTVSS VL: DIVMTQTPASVEAAVGGTVTIKCQASQSINNELSWYQQKPGQRPKLLIYGASTLESGVPSRFSGSGSGTEFTLTISDLECADAATYYCQSAYYSSSSSYANTFGGGTEVVVK	binds
